Target: Serotonin Transporter (SERT) (Homo sapiens, UniProt P31645)
Sequence (P31645 whole entry): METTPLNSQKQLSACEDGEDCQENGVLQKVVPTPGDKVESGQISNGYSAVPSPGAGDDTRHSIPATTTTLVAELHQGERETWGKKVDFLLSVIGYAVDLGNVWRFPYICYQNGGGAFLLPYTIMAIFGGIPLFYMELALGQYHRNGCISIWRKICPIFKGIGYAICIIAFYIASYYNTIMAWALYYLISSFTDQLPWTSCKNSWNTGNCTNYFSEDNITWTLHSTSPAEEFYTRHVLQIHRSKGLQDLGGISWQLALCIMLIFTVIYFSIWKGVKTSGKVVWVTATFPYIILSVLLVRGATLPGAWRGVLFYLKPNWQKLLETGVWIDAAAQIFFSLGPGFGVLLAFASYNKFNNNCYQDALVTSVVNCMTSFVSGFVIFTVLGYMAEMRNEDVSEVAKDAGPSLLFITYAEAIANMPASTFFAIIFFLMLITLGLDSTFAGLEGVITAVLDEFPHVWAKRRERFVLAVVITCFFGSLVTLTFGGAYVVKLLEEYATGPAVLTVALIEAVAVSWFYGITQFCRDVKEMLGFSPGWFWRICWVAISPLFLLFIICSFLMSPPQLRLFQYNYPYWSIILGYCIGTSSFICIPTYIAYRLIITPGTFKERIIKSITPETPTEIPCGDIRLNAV
pKi: −log10 of the molar value.
Recorded Endpoint: pKi

Ask | Return reported pKi; argument: Fc1ccc(C2(NCCCOC3CCCCO3)CC3CCC2C3)cc1 (stereo not shown)
Reply | < 5.00

###

Molecular target: κ-opioid receptors (KOR) (Rattus norvegicus)
Construct: expressed in transfected cells
Sequence (P34975 whole entry): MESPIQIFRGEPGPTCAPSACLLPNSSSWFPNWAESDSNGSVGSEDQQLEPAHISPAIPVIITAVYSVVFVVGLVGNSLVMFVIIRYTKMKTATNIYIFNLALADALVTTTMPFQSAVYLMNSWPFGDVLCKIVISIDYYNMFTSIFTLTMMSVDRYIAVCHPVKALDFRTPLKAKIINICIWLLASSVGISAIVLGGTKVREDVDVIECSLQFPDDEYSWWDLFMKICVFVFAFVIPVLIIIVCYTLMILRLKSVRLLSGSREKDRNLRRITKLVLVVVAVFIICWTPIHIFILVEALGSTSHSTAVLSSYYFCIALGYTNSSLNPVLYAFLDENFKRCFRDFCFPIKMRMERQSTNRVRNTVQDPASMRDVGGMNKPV
Experiment: biochemical
Assay type: binding
Details: read-out: κ-Opiod Receptor Ki
Recorded Endpoint: pKi
Lab note — pKi values are minus log10 of concentrations in M.

Ask | Return reported pKi; argument: Fc1ccc(C2(NCCCOC3CCCCO3)CC3CCC2C3)cc1 (stereo not shown) [ZA-II-05]
Reply | 5.91

###

Target: Dopamine Transporter (DAT) (Homo sapiens)
Sequence (Q01959 whole entry): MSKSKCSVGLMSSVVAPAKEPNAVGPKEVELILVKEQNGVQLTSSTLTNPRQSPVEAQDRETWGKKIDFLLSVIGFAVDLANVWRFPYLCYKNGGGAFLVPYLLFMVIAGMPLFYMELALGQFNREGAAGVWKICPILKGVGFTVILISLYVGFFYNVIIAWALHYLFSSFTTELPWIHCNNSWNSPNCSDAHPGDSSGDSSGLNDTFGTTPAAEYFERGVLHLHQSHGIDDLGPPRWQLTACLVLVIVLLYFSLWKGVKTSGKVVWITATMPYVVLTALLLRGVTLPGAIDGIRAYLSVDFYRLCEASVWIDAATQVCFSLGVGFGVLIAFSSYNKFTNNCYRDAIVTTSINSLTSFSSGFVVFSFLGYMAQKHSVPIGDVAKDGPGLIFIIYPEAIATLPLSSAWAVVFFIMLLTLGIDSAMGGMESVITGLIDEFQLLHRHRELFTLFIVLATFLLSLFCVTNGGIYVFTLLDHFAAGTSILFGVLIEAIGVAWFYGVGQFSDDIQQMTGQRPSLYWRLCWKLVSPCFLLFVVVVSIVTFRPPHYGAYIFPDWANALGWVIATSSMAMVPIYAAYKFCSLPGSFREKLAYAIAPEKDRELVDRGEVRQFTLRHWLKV
Recorded Endpoint: Ki (µM)
Give the value in µM but do not write µM after it.

Ask | Return reported Ki; argument: Fc1ccc(C2(NCCCOC3CCCCO3)CC3CCC2C3)cc1 (stereo not shown) [ZA-II-05]
Reply | 3.16

###

pKi: −log10 of the molar value.
Recorded Endpoint: pKi

Ask | So what pKi did Fc1ccc(C2(NCCCOC3CCCCO3)CC3CCC2C3)cc1 (stereo not shown) get with Sigma1 (Rattus norvegicus, UniProt Q9R0C9)?
Reply | < 5.00

###

Biological target: 5-HT2A (Homo sapiens, UniProt P28223)
Construct: expressed in transfected cells
Sequence (P28223 whole entry): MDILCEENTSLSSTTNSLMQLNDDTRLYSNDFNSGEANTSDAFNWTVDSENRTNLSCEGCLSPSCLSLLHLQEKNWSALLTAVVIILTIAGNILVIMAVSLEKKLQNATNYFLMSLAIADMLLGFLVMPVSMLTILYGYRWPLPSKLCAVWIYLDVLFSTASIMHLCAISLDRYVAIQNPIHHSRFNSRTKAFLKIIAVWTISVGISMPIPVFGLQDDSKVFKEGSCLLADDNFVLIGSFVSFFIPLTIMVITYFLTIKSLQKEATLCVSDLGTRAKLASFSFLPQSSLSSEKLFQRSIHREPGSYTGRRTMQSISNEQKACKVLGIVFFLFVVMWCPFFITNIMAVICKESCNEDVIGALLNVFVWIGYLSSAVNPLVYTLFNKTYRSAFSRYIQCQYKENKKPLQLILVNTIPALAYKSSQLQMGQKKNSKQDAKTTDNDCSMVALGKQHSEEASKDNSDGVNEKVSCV
Assay: radioligand binding, 5-HT2A
Details: [3H] Ketanserin, cloned human receptor; read-out: 5HT2A binding affinity (Ki)
Recorded Endpoint: Ki

Ask | Return reported Ki; argument: Fc1ccc(C2(NCCCOC3CCCCO3)CC3CCC2C3)cc1 (stereo not shown)
Reply | > 10 µM

###

Recorded Endpoint: pKi
Lab note — pKi values are minus log10 of concentrations in M.

Ask | So what pKi did Fc1ccc(C2(NCCCOC3CCCCO3)CC3CCC2C3)cc1 (stereo not shown) [ZA-II-05] get with µ-opioid receptors (MOR) (Homo sapiens, UniProt P35372)?
Reply | 5.52

###

Target: Dopamine 1 (D1) (Homo sapiens, UniProt P21728)
Sequence (P21728 whole entry): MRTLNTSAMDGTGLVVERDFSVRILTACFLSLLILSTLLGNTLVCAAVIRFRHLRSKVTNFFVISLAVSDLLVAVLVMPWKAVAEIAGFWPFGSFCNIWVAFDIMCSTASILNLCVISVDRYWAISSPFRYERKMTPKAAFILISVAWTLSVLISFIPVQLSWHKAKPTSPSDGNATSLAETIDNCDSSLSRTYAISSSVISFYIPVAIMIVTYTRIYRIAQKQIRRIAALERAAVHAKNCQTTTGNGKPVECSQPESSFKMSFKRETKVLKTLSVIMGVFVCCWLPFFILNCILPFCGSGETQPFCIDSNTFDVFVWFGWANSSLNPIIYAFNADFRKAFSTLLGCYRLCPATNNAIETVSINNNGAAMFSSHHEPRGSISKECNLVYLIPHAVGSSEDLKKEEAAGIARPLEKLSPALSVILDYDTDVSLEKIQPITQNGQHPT
Test: radioligand binding, Dopamine 1 (D1)
Settings: [3H] SCH23390, cloned human receptor; read-out: D1 binding affinity (Ki)
pKi: −log10 of the molar value.
Recorded Endpoint: pKi

Ask | Return reported pKi; argument: Fc1ccc(C2(NCCCOC3CCCCO3)CC3CCC2C3)cc1 (stereo not shown) [ZA-II-05]
Reply | < 5.00

###

Target: Sigma2 (Rattus norvegicus)
Construct: Sigma2; DTG; Rat; PC12; endogenous in cells
Sequence (Q5U3Y7 whole entry): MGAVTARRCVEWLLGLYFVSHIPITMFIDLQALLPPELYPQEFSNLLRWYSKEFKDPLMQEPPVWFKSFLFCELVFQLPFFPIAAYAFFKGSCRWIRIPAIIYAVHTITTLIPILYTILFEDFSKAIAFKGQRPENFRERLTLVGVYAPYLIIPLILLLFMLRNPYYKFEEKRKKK
Assay: radioligand binding, Sigma2
Recorded Endpoint: Ki (nM)
Give the value in nM but do not write nM after it.

Ask | Return reported Ki; argument: Fc1ccc(C2(NCCCOC3CCCCO3)CC3CCC2C3)cc1 (stereo not shown)
Reply | 5.5

Hey, just so you know, these numbers are from paper PMC10706475.
